Test system: morningglory (Ipomoea coccinea)
assayExplanation: Test C preemergence
Type: in vivo
conditionDescription: 31 g ai/ha, 0 is no effect, 100 is complete control
From the text: […]
# maps each entry to its Plant response rating (scale of 0 to 100), Morningglory
quantity: Plant response rating (scale of 0 to 100), Morningglory

[
  {
    "compound": "CN1CC(c2cccc(C(F)(F)F)c2)C(C(=O)Nc2ccccc2S(C)(=O)=O)C1=O (stereo not shown) [Compound 637]",
    "tgt": "morningglory (Ipomoea coccinea)",
    "endpointValue": 10
  },
  {
    "compound": "CN1CC(c2ccc(C(F)(F)F)cc2)C(C(=O)Nc2ccccc2S(C)(=O)=O)C1=O (stereo not shown) [Compound 624]",
    "tgt": "morningglory (Ipomoea coccinea)",
    "endpointValue": 0
  },
  {
    "compound": "O=C1NCC(c2cc(F)cc(Cl)c2)C1C(=O)Nc1cccc(F)c1F (stereo not shown) [Compound 492]",
    "tgt": "morningglory (Ipomoea coccinea)",
    "endpointValue": 0
  },
  {
    "compound": "Cc1cccc(C2CN(C)C(=O)C2C(=O)Nc2cccc(F)c2F)c1 (stereo not shown) [Compound 667]",
    "tgt": "morningglory (Ipomoea coccinea)",
    "endpointValue": 0
  }
]
